The values you see were collected from patent US11802110B2.

For each of the compounds below, state its ΔH.
# TESTED SYSTEM: E. Coli LeuRS (Escherichia coli (strain K12))
# Sequence (P07813 whole entry): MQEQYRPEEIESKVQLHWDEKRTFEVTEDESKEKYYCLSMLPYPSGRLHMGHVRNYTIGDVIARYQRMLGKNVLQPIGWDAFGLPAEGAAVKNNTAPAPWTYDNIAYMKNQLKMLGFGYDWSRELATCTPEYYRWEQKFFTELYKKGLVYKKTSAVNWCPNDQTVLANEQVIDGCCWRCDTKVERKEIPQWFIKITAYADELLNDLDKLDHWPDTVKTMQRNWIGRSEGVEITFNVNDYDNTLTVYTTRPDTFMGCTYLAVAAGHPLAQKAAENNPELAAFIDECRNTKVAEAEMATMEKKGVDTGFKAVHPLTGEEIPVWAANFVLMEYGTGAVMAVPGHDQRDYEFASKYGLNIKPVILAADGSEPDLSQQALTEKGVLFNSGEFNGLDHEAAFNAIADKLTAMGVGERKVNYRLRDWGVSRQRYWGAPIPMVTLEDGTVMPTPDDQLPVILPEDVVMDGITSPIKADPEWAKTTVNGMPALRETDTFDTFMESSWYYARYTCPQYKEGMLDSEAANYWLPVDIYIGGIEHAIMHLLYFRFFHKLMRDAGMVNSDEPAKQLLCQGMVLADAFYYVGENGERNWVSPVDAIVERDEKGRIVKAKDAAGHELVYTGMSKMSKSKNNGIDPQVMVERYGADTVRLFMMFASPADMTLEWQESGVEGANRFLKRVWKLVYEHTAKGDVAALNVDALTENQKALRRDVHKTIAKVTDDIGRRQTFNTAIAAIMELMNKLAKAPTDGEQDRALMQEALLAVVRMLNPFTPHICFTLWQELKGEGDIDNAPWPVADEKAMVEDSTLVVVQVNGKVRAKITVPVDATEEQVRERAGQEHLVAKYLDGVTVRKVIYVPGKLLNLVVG
# PROTOCOL DETAILS: Study 2 - Isothermal titration calorimetry (ITC)
# Type: binding
# TEST CONDITIONS: 25° C., pH 7.5, mean ± SD
Report the figure in kcal/mol without appending any unit label.

Ask: Lookup: ΔH / E. Coli LeuRS (Escherichia coli (strain K12)) / CC(C)C[C@H](N)C(=O)N[S@+]([O-])c1cccc(Cl)c1
Reply: -10.75

Ask: Lookup: ΔH / E. Coli LeuRS (Escherichia coli (strain K12)) / C=Cc1cccc([S+]([O-])NC(=O)C(N)CC(C)C)c1 (centres unmarked)
Reply: -4.89

Ask: Lookup: ΔH / E. Coli LeuRS (Escherichia coli (strain K12)) / C#Cc1cccc([S+]([O-])NC(=O)C(N)CC(C)C)c1 (centres unmarked)
Reply: -8.71

Ask: Lookup: ΔH / E. Coli LeuRS (Escherichia coli (strain K12)) / CC(C)CC(N)C(=O)N[S+]([O-])c1cccc(C#N)c1 (centres unmarked)
Reply: -8.49

Ask: Lookup: ΔH / E. Coli LeuRS (Escherichia coli (strain K12)) / CC(C)CC(N)C(=O)N[S+]([O-])c1cccc(F)c1 (centres unmarked)
Reply: -16.22

Ask: Lookup: ΔH / E. Coli LeuRS (Escherichia coli (strain K12)) / COCc1cccc([S+]([O-])NC(=O)C(N)CC(C)C)c1 (centres unmarked)
Reply: -7.06

Ask: Lookup: ΔH / E. Coli LeuRS (Escherichia coli (strain K12)) / COc1cccc([S+]([O-])NC(=O)C(N)CC(C)C)c1 (centres unmarked)
Reply: -12.35

Ask: Lookup: ΔH / E. Coli LeuRS (Escherichia coli (strain K12)) / CC(C)CC(N)C(=O)N[S+]([O-])c1ccc(F)cc1 (centres unmarked)
Reply: -10.95

Ask: Lookup: ΔH / E. Coli LeuRS (Escherichia coli (strain K12)) / Cc1cccc([S+]([O-])NC(=O)C(N)CC(C)C)c1 (centres unmarked)
Reply: -8.69

Ask: Lookup: ΔH / E. Coli LeuRS (Escherichia coli (strain K12)) / CC(C)C[C@H](N)C(=O)N[S@@+]([O-])c1ccccc1 (single isomer, unassigned)
Reply: -2.33

Ask: Lookup: ΔH / E. Coli LeuRS (Escherichia coli (strain K12)) / COC(=O)c1cccc([S+]([O-])NC(=O)C(N)CC(C)C)c1 (centres unmarked)
Reply: -8.23

Ask: Lookup: ΔH / E. Coli LeuRS (Escherichia coli (strain K12)) / CC(C)CC(N)C(=O)N[S+]([O-])c1cccc2ccccc12 (centres unmarked)
Reply: -9.29

Ask: Lookup: ΔH / E. Coli LeuRS (Escherichia coli (strain K12)) / CC(C)CC(N)C(=O)N[S+]([O-])c1cc(F)cc(F)c1 (centres unmarked)
Reply: -9.97

Ask: Lookup: ΔH / E. Coli LeuRS (Escherichia coli (strain K12)) / CC(C)C[C@H](N)C(=O)N[S@+]([O-])c1ccccc1 (single isomer, unassigned) [R-4.1, 2,2,2-trifluoroacetate]
Reply: -11.92

Ask: Lookup: ΔH / E. Coli LeuRS (Escherichia coli (strain K12)) / CC(C)CC(C)(N)C(=O)N[S+]([O-])c1ccccc1 (centres unmarked)
Reply: -1.66

Ask: Lookup: ΔH / E. Coli LeuRS (Escherichia coli (strain K12)) / CC(C)CC(N)C(=O)N[S+]([O-])c1ccccc1F (centres unmarked)
Reply: -12.97

Ask: Lookup: ΔH / E. Coli LeuRS (Escherichia coli (strain K12)) / CC(C)CC(N)C(=O)N[S+]([O-])c1cccc(C(F)(F)F)c1 (centres unmarked)
Reply: -7.03

Ask: Lookup: ΔH / E. Coli LeuRS (Escherichia coli (strain K12)) / CNc1cccc([S+]([O-])NC(=O)C(N)CC(C)C)c1 (centres unmarked)
Reply: -4.27

Ask: Lookup: ΔH / E. Coli LeuRS (Escherichia coli (strain K12)) / CC(C)CC(N)C(=O)N[S+]([O-])c1cccc(-c2ccccc2)c1 (centres unmarked)
Reply: -9.72

Ask: Lookup: ΔH / E. Coli LeuRS (Escherichia coli (strain K12)) / CC(C)CC(N)C(=O)N[S+]([O-])c1cccc(Br)c1 (centres unmarked)
Reply: -10.74

###

For each of the molecules below, state its MIC.
# Tested on: Klebsiella pneumoniae ATCC 700603
# PROTOCOL DETAILS: Study 4 - MIC by broth micro-dilution (CLSI)
# Format: cell-based
# TEST CONDITIONS: Klebsiella pneumoniae, ATCC700603
Report the figure in µg/mL without appending any unit label.

Ask: Lookup: MIC / Klebsiella pneumoniae ATCC 700603 / CC(C)CC(N)C(=O)N[S+]([O-])c1cccc(F)c1F (stereo not drawn)
Reply: 1

Ask: Lookup: MIC / Klebsiella pneumoniae ATCC 700603 / Cc1cccc([S+]([O-])NC(=O)C(N)CC(C)C)c1 (stereo not drawn)
Reply: 16

Ask: Lookup: MIC / Klebsiella pneumoniae ATCC 700603 / C#Cc1cccc([S+]([O-])NC(=O)C(N)CC(C)C)c1 (stereo not drawn)
Reply: 32

Ask: Lookup: MIC / Klebsiella pneumoniae ATCC 700603 / CC(C)CC(N)C(=O)N[S+]([O-])c1ccccc1Cl (stereo not drawn)
Reply: 16

Ask: Lookup: MIC / Klebsiella pneumoniae ATCC 700603 / CC(C)CC(N)C(=O)N[S+]([O-])c1ccccc1F (stereo not drawn)
Reply: 2

Ask: Lookup: MIC / Klebsiella pneumoniae ATCC 700603 / CC(C)CC(N)C(=O)N[S+]([O-])c1cccc(F)c1 (stereo not drawn)
Reply: 2

###

# TESTED SYSTEM: E. Coli LeuRS (Escherichia coli (strain K12))
# PROTOCOL DETAILS: Study 2 - Isothermal titration calorimetry (ITC)
# Type: binding
# TEST CONDITIONS: 25° C., pH 7.5, mean ± SD
REPORTED ENDPOINT: ΔG (kcal/mol)
Report the figure in kcal/mol without appending any unit label.

Ask: Given CC(C)CC(N)C(=O)N[S+]([O-])c1cccc(C#N)c1 (stereo not shown) , state its recorded ΔG.
Reply: -11.56

Ask: Given COc1cccc([S+]([O-])NC(=O)C(N)CC(C)C)c1 (stereo not shown) , state its recorded ΔG.
Reply: -11.45

Ask: Given COC(=O)c1cccc([S+]([O-])NC(=O)C(N)CC(C)C)c1 (stereo not shown) , state its recorded ΔG.
Reply: -11.16

Ask: Given CC(C)CC(N)C(=O)N[S+]([O-])c1ccc(F)cc1 (stereo not shown) , state its recorded ΔG.
Reply: -10.96

Ask: Given CC(C)CC(N)C(=O)N[S+]([O-])c1cccc(-c2ccccc2)c1 (stereo not shown) , state its recorded ΔG.
Reply: -11.39

Ask: Given CC(C)C[C@H](N)C(=O)N[S@@+]([O-])c1ccccc1 (single isomer, unassigned) , state its recorded ΔG.
Reply: -6.89

Ask: Given CC(C)CC(N)C(=O)N[S+]([O-])c1cccc(OC(F)(F)F)c1 (stereo not shown) , state its recorded ΔG.
Reply: -12.08

Ask: Given CC(C)CC(N)C(=O)N[S+]([O-])c1cc(F)cc(F)c1 (stereo not shown) , state its recorded ΔG.
Reply: -10.63

Ask: Given CC(C)CC(N)C(=O)N[S+]([O-])c1cccc(C(F)(F)F)c1 (stereo not shown) , state its recorded ΔG.
Reply: -11.20

Ask: Given CC(C)CC(N)C(=O)N[S+]([O-])c1ccccc1Cl (stereo not shown) , state its recorded ΔG.
Reply: -11.37

###

# PROTOCOL DETAILS: Human cell viability (cytotoxicity), ATP levels by CellTiter-Glo
# Assay type: cell-based
# TEST CONDITIONS: HepG2 cells (ATCC HB-8065), 24 hours incubation, read-out: IC50 (μg/mL), Cytotoxicity in HepG2 ATCC HB-8065 Cell Line
For each of the compounds below, state its IC50 at 24 h.

Ask: Given CC(C)C[C@H](N)C(=O)N[S@+]([O-])c1cccc(Cl)c1 , state its recorded IC50 at 24 h.
Reply: > 64 µg/mL

Ask: Given CC(C)CC(N)C(=O)N[S+]([O-])c1ccc(F)c(Cl)c1 (stereo not drawn) , state its recorded IC50 at 24 h.
Reply: > 64 µg/mL

Ask: Given COc1cccc([S+]([O-])NC(=O)C(N)CC(C)C)c1 (stereo not drawn) , state its recorded IC50 at 24 h.
Reply: > 64 µg/mL

Ask: Given CC(C)CC(N)C(=O)N[S+]([O-])c1cccc(Br)c1 (stereo not drawn) , state its recorded IC50 at 24 h.
Reply: > 64 µg/mL

Ask: Given CSCCC(N)C(=O)N[S+]([O-])c1ccccc1 (stereo not drawn) , state its recorded IC50 at 24 h.
Reply: > 64 µg/mL

Ask: Given CC(C)CC(N)C(=O)N[S+]([O-])c1ccc2ccccc2c1 (stereo not drawn) , state its recorded IC50 at 24 h.
Reply: > 64 µg/mL

Ask: Given CC(C)CC(N)C(=O)N[S+]([O-])c1cccs1 (stereo not drawn) , state its recorded IC50 at 24 h.
Reply: > 64 µg/mL

Ask: Given CC(C)CC(N)C(=O)N[S+]([O-])c1cccc(C(F)(F)F)c1 (stereo not drawn) , state its recorded IC50 at 24 h.
Reply: > 64 µg/mL

Ask: Given CC(C)CC(N)C(=O)N[S+]([O-])c1cccc(-c2ccccc2)c1 (stereo not drawn) , state its recorded IC50 at 24 h.
Reply: 47.7 µg/mL

Ask: Given CCC(C)C(N)C(=O)N[S+]([O-])c1ccccc1 (stereo not drawn) , state its recorded IC50 at 24 h.
Reply: > 32 µg/mL

Ask: Given CC(C)CC(N)C(=O)N[S+]([O-])c1ccc(F)cc1 (stereo not drawn) , state its recorded IC50 at 24 h.
Reply: > 64 µg/mL

Ask: Given CC(C)CC(N)C(=O)N[S+]([O-])c1ccc(C(C)(C)C)cc1 (stereo not drawn) , state its recorded IC50 at 24 h.
Reply: > 64 µg/mL

Ask: Given CCCC(N)C(=O)N[S+]([O-])c1ccccc1 (stereo not drawn) , state its recorded IC50 at 24 h.
Reply: > 64 µg/mL

Ask: Given Cc1cccc([S+]([O-])NC(=O)C(N)CC(C)C)c1 (stereo not drawn) , state its recorded IC50 at 24 h.
Reply: > 64 µg/mL

Ask: Given CC(C)CC(N)C(=O)N[S+]([O-])c1cccc(F)c1 (stereo not drawn) , state its recorded IC50 at 24 h.
Reply: > 64 µg/mL

Ask: Given NC(C(=O)N[S+]([O-])c1ccccc1)c1ccccc1 (stereo not drawn) , state its recorded IC50 at 24 h.
Reply: > 64 µg/mL

Ask: Given CC(C)CC(N)C(=O)N[S+]([O-])c1ccccc1C#N (stereo not drawn) , state its recorded IC50 at 24 h.
Reply: 32.5 µg/mL

Ask: Given CCC(N)C(=O)N[S+]([O-])c1cccc(F)c1 (stereo not drawn) , state its recorded IC50 at 24 h.
Reply: > 64 µg/mL

Ask: Given CNc1cccc([S+]([O-])NC(=O)C(N)CC(C)C)c1 (stereo not drawn) , state its recorded IC50 at 24 h.
Reply: > 64 µg/mL

Ask: Given COC(=O)c1cccc([S+]([O-])NC(=O)C(N)CC(C)C)c1 (stereo not drawn) , state its recorded IC50 at 24 h.
Reply: > 64 µg/mL

Ask: Given CC(C)CC(N)C(=O)N[S+]([O-])c1cc(F)cc(F)c1 (stereo not drawn) , state its recorded IC50 at 24 h.
Reply: > 64 µg/mL

Ask: Given CC(C)C[C@@H](N)C(=O)N[S+]([O-])c1ccccc1 (stereo partly drawn) , state its recorded IC50 at 24 h.
Reply: > 32 µg/mL

Ask: Given CC(C)CC(N)C(=O)N[S+]([O-])c1cccc(Cl)c1 (stereo not drawn) , state its recorded IC50 at 24 h.
Reply: > 64 µg/mL

Ask: Given CC(C)CC(N)C(=O)N[S+]([O-])c1cccc2ccccc12 (stereo not drawn) , state its recorded IC50 at 24 h.
Reply: 46 µg/mL

Ask: Given CC(C)CC(N)C(=O)N[S+]([O-])c1cccc(OC(F)(F)F)c1 (stereo not drawn) , state its recorded IC50 at 24 h.
Reply: > 64 µg/mL

Ask: Given CC(C)CC(N)C(=O)N[S+]([O-])c1ccccc1F (stereo not drawn) , state its recorded IC50 at 24 h.
Reply: > 64 µg/mL

Ask: Given NC(Cc1ccccc1)C(=O)N[S+]([O-])c1ccccc1 (stereo not drawn) , state its recorded IC50 at 24 h.
Reply: > 64 µg/mL

Ask: Given CC(C)CC(C)(N)C(=O)N[S+]([O-])c1ccccc1 (stereo not drawn) , state its recorded IC50 at 24 h.
Reply: > 64 µg/mL

Ask: Given CC(C)C[C@H](N)C(=O)N[S@@+]([O-])c1ccccc1 (single isomer, unassigned) , state its recorded IC50 at 24 h.
Reply: > 64 µg/mL

Ask: Given CC(C)CC(N)C(=O)N[S+]([O-])c1cccc(F)c1F (stereo not drawn) , state its recorded IC50 at 24 h.
Reply: > 64 µg/mL

Ask: Given CC(C)CC(N)C(=O)N[S+]([O-])c1cccc(-c2ccn(C)n2)c1 (stereo not drawn) , state its recorded IC50 at 24 h.
Reply: > 64 µg/mL

Ask: Given CC(C)CC(N)C(=O)N[S+]([O-])c1cccc(C#N)c1 (stereo not drawn) , state its recorded IC50 at 24 h.
Reply: > 64 µg/mL

Ask: Given CC(C)C(N)C(=O)N[S+]([O-])c1ccccc1 (stereo not drawn) , state its recorded IC50 at 24 h.
Reply: > 32 µg/mL

Ask: Given Cc1ccc([S+]([O-])NC(=O)C(N)CC(C)C)c(F)c1 (stereo not drawn) , state its recorded IC50 at 24 h.
Reply: > 64 µg/mL

Ask: Given C=Cc1cccc([S+]([O-])NC(=O)C(N)CC(C)C)c1 (stereo not drawn) , state its recorded IC50 at 24 h.
Reply: > 64 µg/mL

Ask: Given C#Cc1cccc([S+]([O-])NC(=O)C(N)CC(C)C)c1 (stereo not drawn) , state its recorded IC50 at 24 h.
Reply: > 64 µg/mL

Ask: Given CC(C)C[C@H](N)C(=O)N[S@+]([O-])c1ccccc1 (single isomer, unassigned) [R-4.1, 2,2,2-trifluoroacetate] , state its recorded IC50 at 24 h.
Reply: > 64 µg/mL

Ask: Given CC(C)CC(N)C(=O)N[S+]([O-])c1ccccc1Cl (stereo not drawn) , state its recorded IC50 at 24 h.
Reply: > 64 µg/mL

Ask: Given CC(C)CC(N)C(=O)N[S+]([O-])c1cc(Cl)cc(Cl)c1 (stereo not drawn) , state its recorded IC50 at 24 h.
Reply: 44 µg/mL
